target: Glycogen synthase kinase-3 alpha (Homo sapiens, UniProt P49840)
Sequence (P49840 whole entry): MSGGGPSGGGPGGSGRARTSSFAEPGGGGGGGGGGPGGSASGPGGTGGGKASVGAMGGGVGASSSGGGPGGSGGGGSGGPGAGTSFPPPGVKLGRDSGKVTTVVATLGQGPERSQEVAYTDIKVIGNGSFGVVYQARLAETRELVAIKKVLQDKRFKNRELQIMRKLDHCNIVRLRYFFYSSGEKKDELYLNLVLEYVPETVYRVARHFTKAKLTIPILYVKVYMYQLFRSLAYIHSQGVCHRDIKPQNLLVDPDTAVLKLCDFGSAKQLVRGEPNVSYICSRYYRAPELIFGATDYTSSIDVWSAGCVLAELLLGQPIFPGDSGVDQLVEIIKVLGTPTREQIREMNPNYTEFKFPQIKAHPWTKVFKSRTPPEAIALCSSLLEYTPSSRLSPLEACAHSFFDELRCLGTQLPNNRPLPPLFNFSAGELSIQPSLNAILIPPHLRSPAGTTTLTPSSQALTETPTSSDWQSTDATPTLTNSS
pIC50: −log10 of the molar value.
PROPERTY MEASURED: pIC50

Past entries and their recorded results:
MOLECULE	pIC50
CCn1ccc(S(=O)(=O)N2CCC3(CC2)C2=CN=NC2NC2=C3C(=O)NC(C)(C)C2)n1 (stereo unspecified)	> 7.00
CC[C@]1(c2cccc(-c3ccncc3F)c2)C2=C(CC(C)(C)NC2=O)NC2N=NC(Cl)=C21 (stereo partly specified)	< 5.30
CCC1(c2cccc(-c3ccncc3O)c2)C2=C(CC(C)(C)CC2=O)NC2N=NC(C)=C21 (stereo unspecified)	> 7.00
CC1(C)CC(=O)C2=C(C1)NC1=C(CN=N1)[C@]21CC[C@@H](C(F)(F)F)C1	6.00 to 7.00
CC[C@@]1(c2cccc(-c3ccncc3C)c2)C2=CN=NC2NC2=C1C(=O)CC(C)(C)C2 (stereo partly specified)	> 7.00

# context switch: different molecule, same pIC50
Please provide the recorded pIC50 for CC[C@@]1(c2cccc(-c3cncn3C)c2)C2=CN=NC2NC2=C1C(=O)CC(C)(C)C2 (stereo partly specified) , tested on Glycogen synthase kinase-3 alpha (Homo sapiens, UniProt P49840).
> 7.00
